System: PA-1
Procedure Summary: Primary qHTS to identify gynecologic anti-cancer compounds using libraries of approved drugs and bioactive compounds (AID 1345084); further: on the % scale 0 is the no-effect control and ±100 the full control effect; nearly all actives have a fitted effect of over 55% in size
Test Context: Gynecologic cancer cell panel viability, ATPlite luminescence, 48 h; series mostly up to 57.5 µM
Inconclusive results are not listed. Calls of active or inactive are those of the source. The call rests on the fitted dose curve; in most records, active means well fitted cell-killing curve with a large enough effect; inconclusive means small, poorly fitted or top-dose-only effect, or effect the other way; inactive means flat fitted curve, though single readings scatter.
Measured Attribute: activity change, negative = cytotoxicity

CC(=O)N[C@H]1[C@H](O[C@H]2CC[C@@]3(C)C(CC[C@]4(C)C3CC=C3C5CC(C)(C)CC[C@]5(C(=O)O)[C@H](O[C@@H]5O[C@H](CO)[C@@H](O)[C@H](O)[C@H]5O)C[C@]34C)C2(C)C)O[C@H](CO[C@@H]2OC[C@H](O)[C@H](O)[C@H]2O[C@@H]2OC[C@@H](O)[C@H](O)[C@H]2O)[C@@H](O)[C@@H]1O (stereo not given in full); -6.75% [at 11.6 µM] (inactive)
CC(C)(O)/C=C1/C(=O)C(C)(C)C(=O)C(C)(C)C1(O)O[C@@H]1O[C@H](COC(=O)c2cc(O)c(O)c(O)c2)[C@@H](O)[C@H](O)[C@H]1O (stereo not given in full); inactive
O=C(NN1CCCCC1)c1nn(-c2ccc(Cl)cc2Cl)c(-c2ccc(C#Cc3ccc(C(F)(F)F)cc3)s2)c1CNS(=O)(=O)N1CCCC1; inactive
C=C1CC[C@H]2[C@@H](/C=C(\C)C(=O)[C@@]3(OC(C)=O)C[C@H](C)[C@H](OC(C)=O)[C@@H]3[C@H]1OC(C)=O)C2(C)C; inactive

We next turn to a different molecule, shown below.
-- ask Please report the measured activity change, negative = cytotoxicity for "CC(C)=CCC/C(C)=C/CC/C(C)=C/CC[C@]1(C)CCc2cc(O)cc(C)c2O1"
-- reply inactive

###

Test system: DIV17
Procedure Summary: qHTS profiling for inhibitors of Plasmodium falciparum proliferation (AID 504749); further: nearly all actives have a fitted effect of over 60% in size
Test Context: P. falciparum in erythrocytes, SYBR Green DNA, 72 h; series mostly up to 28.7 µM
Results filed as inconclusive are left out. Active and inactive are the calls of the source. Calls come from the whole dose curve; as a rule, active = well fitted inhibition curve with a large enough effect; inconclusive = small, poorly fitted or top-dose-only effect; inactive = flat fitted curve, though single readings scatter. Peptide text beside a SMILES is read from it.
Tick one outcome: 1 (yes) for active, 0 (no) for inactive

-- ask // return assay outcome for "CC(C)N=c1cc2n(-c3ccc(Cl)cc3)c3ccccc3nc-2cc1Nc1ccc(Cl)cc1"
-- reply 0 (no)

-- ask GET /call?item= "O=S(=O)(O)c1ccc2c(N=Nc3ccc(S(=O)(=O)O)c4ccccc34)c(O)c(S(=O)(=O)O)cc2c1" returns the recorded outcome of this test.
-- reply 0 (no)

-- ask For this compound, state the assay outcome: "Nc1ncnc2c1ncn2[C@@H]1O[C@H](COP(=O)(O)OP(=O)(O)OP(=O)(O)O)[C@@H](O)[C@H]1O"
-- reply 0 (no)

-- ask // return assay outcome for "O=C(O)CCC(=O)C(=O)O"
-- reply 0 (no)

-- ask Returns: the outcome recorded for CC(NNC(=O)c1ccccc1)c1ccccc1 (configuration not stated) in this assay.
-- reply 0 (no)

-- ask Which outcome did this test record for the compound "C[C@]12CCC(=O)C=C1CC[C@@H]1[C@@H]2[C@@H](O)C[C@@]2(C)[C@H]1CC[C@]2(O)C(=O)COP(=O)(O)O" ?
-- reply 0 (no)

-- ask Assay outcome for "COCC(=O)Nc1cc(Sc2ccccc2)ccc1N=C(NC(=O)OC)NC(=O)OC" : what was it?
-- reply 0 (no)

-- ask Answer briefly: the call reported for "CO[C@H]1C[C@@H]2CC[C@@H](C)[C@@](O)(O2)C(=O)C(=O)N2CCCC[C@H]2C(=O)O[C@H]([C@H](C)C[C@@H]2CC[C@@H](OCCO)[C@H](OC)C2)CC(=O)[C@H](C)/C=C(\C)[C@@H](O)[C@@H](OC)C(=O)[C@H](C)C[C@H](C)/C=C/C=C/C=C/1C" in this assay.
-- reply 1 (yes)

-- ask Per the assay record, what outcome was assigned to "Cc1ccccc1" ?
-- reply 0 (no)

-- ask How was "C=CCSSSCC=C" classified in this test?
-- reply 0 (no)

-- ask What outcome does the record of this test show for "CC(C)(C)C(=O)OCOC(=O)[C@@H]1N2C(=O)[C@@H](N=CN3CCCCCC3)[C@H]2SC1(C)C" ?
-- reply 0 (no)

-- ask # lookup: test call for "CC1=C(/C=C/C(C)=C/C=C/C(C)=C/C=C/C=C(C)/C=C/C=C(C)/C=C/C2=C(C)C(=O)CCC2(C)C)C(C)(C)CCC1=O"
-- reply 0 (no)

-- ask Lab log entry: "CC1=C(/C=C/C(C)=C/C=C/C(C)=C/CO)C(C)(C)CCC1" — outcome as called in the assay?
-- reply 1 (yes)

-- ask Hello, I am checking results. What call was entered for Oc1cc(O)c2c(c1)OC(c1ccc(O)c(O)c1)C(O)C2 (configuration not stated) ?
-- reply 0 (no)

-- ask Returns: the outcome recorded for CCC(=O)NCCC1CCc2ccc3c(c21)CCO3 (configuration not stated) in this assay.
-- reply 0 (no)

-- ask Could you please tell me the result logged for "CC(=O)Oc1cc(C)c(OC(C)=O)c2ccccc12" in this assay?
-- reply 1 (yes)

-- ask Look up the recorded call for "CCCCCCOc1ccc(C(=N)N(CCCC)CCCC)c2ccccc12" in this test.
-- reply 1 (yes)

-- ask Identify the outcome logged in this assay for the compound shown: "CCOC(C)=O"
-- reply 0 (no)

-- ask Could you check what this test reported for "CC1=C(/C=C/C(C)=C/C=C/C(C)=C/C=C/C=C(C)/C=C/C=C(C)/C=C/C2=C(C)CCCC2(C)C)C(C)(C)CCC1" ?
-- reply 0 (no)

-- ask Assay result, entry "CCCC(=O)O[C@]1(C(=O)CCl)[C@H](C)C[C@@H]2[C@H]3CCC4=CC(=O)C=C[C@]4(C)[C@@]3(F)C(=O)C[C@@]21C" — outcome?
-- reply 1 (yes)

-- ask Outcome? Nc1c(Br)cc(Br)cc1CNC1CCC(O)CC1 (configuration not stated)
-- reply 0 (no)

-- ask // param item: COC(=O)C1=C(C#N)NC(C)=C(C(=O)OC(C)C)C1c1cccc([N+](=O)[O-])c1 (configuration not stated) ; yields the recorded call
-- reply 1 (yes)

-- ask Dear colleague, could you share the recorded outcome for CN1C(=O)CN2CCc3ccccc3C2c2cc(Cl)ccc21 (configuration not stated) when you have a moment?
-- reply 1 (yes)

-- ask Dear all, I need the recorded test outcome for CC(=O)N[C@@H](CC(=O)O)C(=O)N[C@@H](CCC(=O)O)C(=O)O (Ac-Asp-Glu-OH) , thank you.
-- reply 0 (no)

-- ask // param item: "COc1ccc2c3c1O[C@H]1C[C@@H](O)C=C[C@@]31CCN(C)C2" ; yields the recorded call
-- reply 0 (no)

-- ask Hey, what did the test say about "Cc1cn([C@H]2C[C@H](O)[C@@H](CO)O2)c(=O)[nH]c1=O" ?
-- reply 0 (no)

-- ask # outcome recorded in this test, key = "COC(=O)[C@H]1[C@H]2C[C@@H]3c4[nH]c5ccccc5c4CCN3C[C@H]2C[C@@H](OC(=O)c2cc(OC)c(OC)c(OC)c2)[C@@H]1OC"
-- reply 1 (yes)

These measurements were taken from PubChem BioAssay (NCATS).
